Study system: PI3Kβ (Homo sapiens (Human), UniProt P42338)
Sequence (P42338 whole entry, canonical isoform): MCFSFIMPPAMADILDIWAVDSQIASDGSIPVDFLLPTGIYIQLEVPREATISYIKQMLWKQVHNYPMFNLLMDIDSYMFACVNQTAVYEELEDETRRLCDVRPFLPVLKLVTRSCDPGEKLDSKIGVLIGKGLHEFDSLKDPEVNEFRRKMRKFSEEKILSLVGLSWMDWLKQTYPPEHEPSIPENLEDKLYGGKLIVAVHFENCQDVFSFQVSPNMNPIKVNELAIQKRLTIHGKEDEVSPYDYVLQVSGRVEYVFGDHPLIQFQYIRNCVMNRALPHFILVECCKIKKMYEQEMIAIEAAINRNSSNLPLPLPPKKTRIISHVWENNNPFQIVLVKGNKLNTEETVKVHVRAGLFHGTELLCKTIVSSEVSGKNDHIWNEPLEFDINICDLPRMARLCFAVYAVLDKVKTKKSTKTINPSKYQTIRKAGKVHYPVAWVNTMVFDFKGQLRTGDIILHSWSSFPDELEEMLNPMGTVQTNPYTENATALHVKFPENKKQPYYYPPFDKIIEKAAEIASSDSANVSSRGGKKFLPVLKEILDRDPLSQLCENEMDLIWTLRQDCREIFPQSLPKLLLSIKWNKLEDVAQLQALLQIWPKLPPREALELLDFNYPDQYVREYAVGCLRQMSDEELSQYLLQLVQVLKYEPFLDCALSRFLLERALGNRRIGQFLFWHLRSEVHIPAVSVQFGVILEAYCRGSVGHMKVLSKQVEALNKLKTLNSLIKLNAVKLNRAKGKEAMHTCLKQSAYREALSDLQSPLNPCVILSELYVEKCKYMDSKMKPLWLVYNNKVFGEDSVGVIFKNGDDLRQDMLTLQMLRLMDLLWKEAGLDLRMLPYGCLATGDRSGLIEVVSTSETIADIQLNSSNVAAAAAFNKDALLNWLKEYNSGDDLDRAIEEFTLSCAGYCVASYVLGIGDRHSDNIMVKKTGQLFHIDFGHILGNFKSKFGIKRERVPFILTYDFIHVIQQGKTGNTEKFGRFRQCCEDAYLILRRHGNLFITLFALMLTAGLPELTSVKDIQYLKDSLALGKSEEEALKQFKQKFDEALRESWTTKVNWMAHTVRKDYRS
Sequence (P27986 whole entry partner, canonical isoform): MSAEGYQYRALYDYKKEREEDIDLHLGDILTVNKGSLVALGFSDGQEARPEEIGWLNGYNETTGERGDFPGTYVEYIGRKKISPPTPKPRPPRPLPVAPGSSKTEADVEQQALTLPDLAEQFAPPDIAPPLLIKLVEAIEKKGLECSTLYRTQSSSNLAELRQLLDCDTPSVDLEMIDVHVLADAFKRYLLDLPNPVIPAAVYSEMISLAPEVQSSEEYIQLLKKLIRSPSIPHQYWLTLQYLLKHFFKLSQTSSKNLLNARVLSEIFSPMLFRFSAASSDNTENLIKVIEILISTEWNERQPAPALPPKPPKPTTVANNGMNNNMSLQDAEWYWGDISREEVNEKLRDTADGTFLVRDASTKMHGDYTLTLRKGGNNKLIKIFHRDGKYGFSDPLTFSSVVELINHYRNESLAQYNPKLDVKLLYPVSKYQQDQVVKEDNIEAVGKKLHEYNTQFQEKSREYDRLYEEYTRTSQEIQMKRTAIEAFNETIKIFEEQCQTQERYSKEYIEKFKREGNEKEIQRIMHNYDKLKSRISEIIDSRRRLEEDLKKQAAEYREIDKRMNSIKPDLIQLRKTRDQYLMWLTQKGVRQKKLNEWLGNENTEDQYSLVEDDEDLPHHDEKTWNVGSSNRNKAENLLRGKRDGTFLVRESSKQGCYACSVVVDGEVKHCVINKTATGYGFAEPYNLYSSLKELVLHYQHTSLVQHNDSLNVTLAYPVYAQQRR
Method description: PI3K isoform TR-FRET enzymatic assay (PI3Kβ)
Details: 2× Km ATP, 30 minutes at 25° C.
Recorded endpoint: pIC50
One number for each entry, as −log10 of the molar value.

Before answering, review these 3 worked examples.
* Fc1ccc2c(-n3cnc4c(-c5nnc[nH]5)cc(N5CCOCC5)cc43)ccnc2c1Cl [Example 29] | 8.15
* Cc1nc2c(-c3cc[nH]n3)cc(N3CCOCC3)cc2n1-c1ccnc2c(Cl)cccc12 [Example 262] | 7.57
* c1ccc2c(-n3cnc4c(-c5nnc[nH]5)cc(N5CCOCC5)cc43)cc(N3CCNCC3)nc2c1 [Example 379] | 8.10

API: the following record is the query input.
Query: May I ask what pIC50 has been recorded for Fc1ccc(F)c2c(-n3c(CC4CC4)nc4c(-c5ncco5)cc(N5CCOCC5)cc43)ccnc12 [Example 221] ?
Reply: 7.96
